interaction score: recorded values
Target: T1, 4H3588-AA
T1 chain: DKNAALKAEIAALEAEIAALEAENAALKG
Assay: two-hybrid library CCmax;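 also: natural log of median RNA to DNA barcode read ratio; higher means stronger binding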
Settings: mean of both orientations

[
  {
    "binder": "DEIAALEAEIAALEAENAALKAKNAALKG [4H32-AA]",
    "interaction score": -0.686
  },
  {
    "binder": "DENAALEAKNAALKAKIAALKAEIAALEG [4H1513-AA]",
    "interaction score": -0.131
  },
  {
    "binder": "DKNAALEAEIAALKAENAALKAEIAALKG [4H3162-AA]",
    "interaction score": -1.53
  },
  {
    "binder": "DKIAALKAEIAALKAENAALEAKNAALKG [4H2648-AA]",
    "interaction score": 0.769
  },
  {
    "binder": "DKIAALKAEIAALEAKNAALKAENAALKG [4H2620-AA]",
    "interaction score": 0.147
  },
  {
    "binder": "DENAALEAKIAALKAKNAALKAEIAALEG [4H1401-AA]",
    "interaction score": -0.275
  },
  {
    "binder": "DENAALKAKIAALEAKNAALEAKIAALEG [4H1845-AA]",
    "interaction score": -1.56
  },
  {
    "binder": "DENAALEAKIAALKAKIAALKAENAALKG [4H1388-AA]",
    "interaction score": 2.13
  },
  {
    "binder": "DENAALKAEIAALKAENAALKAKIAALEG [4H1629-AA]",
    "interaction score": -1.46
  },
  {
    "binder": "DKNAALEAEIAALEAKNAALKAKIAALEG [4H3133-AA]",
    "interaction score": -1.47
  }
]

Measured values drawn from paper PMC10397247 for this set.
